Data origin, for the record: ChEMBL document CHEMBL5154700

Molecular target: Sodium-dependent phosphate transport protein 2B (Homo sapiens)
Sequence (O95436 whole entry): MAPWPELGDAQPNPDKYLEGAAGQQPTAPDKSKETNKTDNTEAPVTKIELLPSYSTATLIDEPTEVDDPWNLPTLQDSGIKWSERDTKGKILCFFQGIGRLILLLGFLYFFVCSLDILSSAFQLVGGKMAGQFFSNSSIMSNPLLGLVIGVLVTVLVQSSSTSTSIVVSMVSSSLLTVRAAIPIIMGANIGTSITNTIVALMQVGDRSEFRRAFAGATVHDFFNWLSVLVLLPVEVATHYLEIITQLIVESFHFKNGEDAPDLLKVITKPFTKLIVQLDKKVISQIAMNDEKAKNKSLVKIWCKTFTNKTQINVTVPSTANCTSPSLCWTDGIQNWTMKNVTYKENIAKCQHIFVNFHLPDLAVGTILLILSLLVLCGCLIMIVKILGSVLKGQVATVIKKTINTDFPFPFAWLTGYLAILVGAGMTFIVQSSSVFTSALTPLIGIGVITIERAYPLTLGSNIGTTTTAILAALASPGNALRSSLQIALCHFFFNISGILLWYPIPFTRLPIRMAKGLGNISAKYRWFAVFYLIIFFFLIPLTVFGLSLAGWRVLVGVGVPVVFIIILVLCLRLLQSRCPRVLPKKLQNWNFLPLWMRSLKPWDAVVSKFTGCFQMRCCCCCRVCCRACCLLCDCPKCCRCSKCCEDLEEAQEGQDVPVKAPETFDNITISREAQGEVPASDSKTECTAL
Test: Inhibition of human NaPi2b expressed in KJMGER8 cells assessed as reduction in H2[33P]O4 uptake incubated for 60 mins by TopCount scintillation counting method
pIC50: −log10 of the molar value.
pIC50 vs 7: at or above is label 1, below is label 0.

Ask: Could you verify whether the entry CCN(CC)CCOCCOCCOc1cccc(C(=O)Nc2sc3c(c2C(=O)N/N=C/c2ccc(Cl)c(C(F)(F)F)c2)CCN(C2CC2)C3)c1 shows pIC50 of no less than 7?
Reply: label 0

Ask: Could you verify whether the entry CCN(CC)CCOCCOCCOc1cccc(C(=O)Nc2sc3c(c2C(=O)N/N=C/c2ccc(Cl)c(C(F)(F)F)c2)CCC(C)(C)C3)c1 shows pIC50 of no less than 7?
Reply: label 1

* * *

Assay: Half life in CRL:CD(SD) rat at 30 mg/kg, po measured after 7 hrs by LC-MS/MS analysis
Type: ADME, organism-based
Details: in vivo
Parameter: half-life (h)
Number in h, nothing else.

Sample COCCN(CCOCCOCCOCCOCCOCCOCc1cccc(C(=O)Nc2sc3c(c2C(=O)N/N=C/c2ccc(Cl)c(C(F)(F)F)c2)CCC(C)(C)C3)c1)CC(=O)O ; half-life observed: 3.53

* * *

Assay: AUC(0 to infinity) in CRL:CD(SD) rat at 30 mg/kg, po measured after 7 hrs by LC-MS/MS analysis
Type: ADME, organism-based
Set-up: dose 30 mg/kg, time 7 hrs, route po
Conditions: in vivo
Parameter: AUC(0-inf) (ng·h/mL)
Number in ng·h/mL, nothing else.

Sample COCCN(CCOCCOCCOCCOCCOCCOCc1cccc(C(=O)Nc2sc3c(c2C(=O)N/N=C/c2ccc(Cl)c(C(F)(F)F)c2)CCC(C)(C)C3)c1)CC(=O)O ; AUC(0-inf) observed: 2.62

* * *

Experiment: AUC (0 to t) in CRL:CD(SD) rat at 10 mg/kg, po by LC-MS/MS analysis
Format: ADME, organism-based
Parameters: dose 10 mg/kg, route po
Conditions: in vivo
Parameter: AUC(0-t)

Sample CCN(CC)CCCN(C)Cc1cccc(C(=O)Nc2sc3c(c2C(=O)N/N=C/c2ccc(Cl)c(C(F)(F)F)c2)CCN(C2CC2)C3)c1 ; AUC(0-t) observed: 10.4 ng·h/mL

* * *

Test: Cmax in CRL:CD(SD) rat at 30 mg/kg, po measured after 7 hrs by LC-MS/MS analysis
Format: ADME, organism-based
Parameters: dose 30 mg/kg, time 7 hrs, route po
Conditions: in vivo
Parameter: Cmax (ng/mL)
Number in ng/mL, nothing else.

Sample COCCN(CCOCCOCCOCCOCCOCCOCc1cccc(C(=O)Nc2sc3c(c2C(=O)N/N=C/c2ccc(Cl)c(C(F)(F)F)c2)CCC(C)(C)C3)c1)CC(=O)O ; Cmax observed: 0.444

* * *

Assay: Drug concentration in CRL:CD(SD) rat lung at 30 mg/kg, po measured after 6 hrs by LC-MS/MS analysis
Assay type: ADME, organism-based
Settings: read-out: Ct
Parameter: concentration at 6 h

Sample CCN(CC)CCCN(C)Cc1cccc(C(=O)Nc2sc3c(c2C(=O)N/N=C/c2ccc(Cl)c(C(F)(F)F)c2)CCN(C2CC2)C3)c1 ; concentration at 6 h observed: 6350 ng/g

* * *

Experiment: Drug concentration in CRL:CD(SD) rat plasma at 30 mg/kg, po measured after 6 hrs by LC-MS/MS analysis
Type: ADME, organism-based
Parameter: concentration at 6 h (ng/mL)
Number in ng/mL, nothing else.

Sample CCN(CC)CCCN(C)Cc1cccc(C(=O)Nc2sc3c(c2C(=O)N/N=C/c2ccc(Cl)c(C(F)(F)F)c2)CCN(C2CC2)C3)c1 ; concentration at 6 h observed: 1.86

* * *

Test: Drug concentration in CRL:CD(SD) rat lung at 30 mg/kg, po measured after 7 hrs by LC-MS/MS analysis
Format: ADME, organism-based
Conditions: read-out: Ct
Parameter: concentration at 7 h

Sample COCCN(CCOCCOCCOCCOCCOCCOCc1cccc(C(=O)Nc2sc3c(c2C(=O)N/N=C/c2ccc(Cl)c(C(F)(F)F)c2)CCC(C)(C)C3)c1)CC(=O)O ; concentration at 7 h observed: < 1.5 ng/g

* * *

Assay: Oral bioavailability in CRL:CD(SD) rat at 10 mg/kg by LC-MS/MS analysis
Type: ADME, organism-based
Details: in vivo
Parameter: bioavailability (%)
Number in %, nothing else.

Sample CCN(CC)CCCN(C)Cc1cccc(C(=O)Nc2sc3c(c2C(=O)N/N=C/c2ccc(Cl)c(C(F)(F)F)c2)CCN(C2CC2)C3)c1 ; bioavailability observed: 0.96

* * *

Assay: Passive permeability of the compound across apical to basolateral at 100 uM incubated for 5 hrs by PAMPA assay
Assay type: ADME
Settings: read-out: permeability
Parameter: Papp at 5 h, 100 µM

Sample COCCN(CCOCCOCCOCCOCCOCCOCc1cccc(C(=O)Nc2sc3c(c2C(=O)N/N=C/c2ccc(Cl)c(C(F)(F)F)c2)CCC(C)(C)C3)c1)CC(=O)O ; Papp at 5 h, 100 µM observed: < 0.025 ×10⁻⁶ cm/s

Sample CCN(CC)CCOCCOCCOc1cccc(C(=O)Nc2sc3c(c2C(=O)N/N=C/c2ccc(Cl)c(C(F)(F)F)c2)CCC(C)(C)C3)c1 ; Papp at 5 h, 100 µM observed: < 0.025 ×10⁻⁶ cm/s

Sample CCN(CC)CCOCCOCCOc1cccc(C(=O)Nc2sc3c(c2C(=O)N/N=C/c2ccc(Cl)c(C(F)(F)F)c2)CCN(C2CC2)C3)c1 ; Papp at 5 h, 100 µM observed: 0.23 ×10⁻⁶ cm/s

* * *

Experiment: Oral bioavailability in CRL:CD(SD) rat at 30 mg/kg measured after 7 hrs by LC-MS/MS analysis
Format: ADME, organism-based
Details: in vivo
Parameter: bioavailability

Sample COCCN(CCOCCOCCOCCOCCOCCOCc1cccc(C(=O)Nc2sc3c(c2C(=O)N/N=C/c2ccc(Cl)c(C(F)(F)F)c2)CCC(C)(C)C3)c1)CC(=O)O ; bioavailability observed: 0.1%

* * *

Assay: Ratio of drug level in lung to plasma in CRL:CD(SD) rat at 30 mg/kg, po measured after 7 hrs by LC-MS/MS
Format: ADME, organism-based
Conditions: lung and plasma
Parameter: Kp at 7 h
Give your answer as a number; write no unit.

Sample CC1(C)CCc2c(sc(NC(=O)c3cccc(OCCOCCOCCOC[C@H](O)CN(CCO)CCO)c3)c2C(=O)N/N=C/c2ccc(Cl)c(C(F)(F)F)c2)C1 ; Kp at 7 h observed: 44

Sample CCN(CC)CCOCCOCCOc1cccc(C(=O)Nc2sc3c(c2C(=O)N/N=C/c2ccc(Cl)c(C(F)(F)F)c2)CCC(C)(C)C3)c1 ; Kp at 7 h observed: 130

Sample CCN(CC)C[C@@H](O)COCCOCCOCCOc1cccc(C(=O)Nc2sc3c(c2C(=O)N/N=C/c2ccc(Cl)c(C(F)(F)F)c2)CCC(C)(C)C3)c1 ; Kp at 7 h observed: 428

* * *

Test: AUC (0 to t) in CRL:CD(SD) rat at 30 mg/kg, po measured after 7 hrs by LC-MS/MS analysis
Format: ADME, organism-based
Design: time 7 hrs, dose 30 mg/kg, route po
Conditions: in vivo
Parameter: AUC(0-t) at 7 h (ng·h/mL)
Number in ng·h/mL, nothing else.

Sample COCCN(CCOCCOCCOCCOCCOCCOCc1cccc(C(=O)Nc2sc3c(c2C(=O)N/N=C/c2ccc(Cl)c(C(F)(F)F)c2)CCC(C)(C)C3)c1)CC(=O)O ; AUC(0-t) at 7 h observed: 0.665

* * *

Assay: Solubility of compound in phosphate buffer at pH 7.4
Format: physicochemical
Field: log10 of solubility. Provide a value for each of the molecules that follow.
In plain terms, each number is the log10 of measured solubility in µM.

Sample CC1(C)CCc2c(sc(NC(=O)c3cccc(OCCOCCOCCOC[C@H](O)CN(CCO)CCO)c3)c2C(=O)N/N=C/c2ccc(Cl)c(C(F)(F)F)c2)C1 ; log10 of solubility observed: 1.88

Sample CCN(CC)CCOCCOCCOc1cccc(C(=O)Nc2sc3c(c2C(=O)N/N=C/c2ccc(Cl)c(C(F)(F)F)c2)CCN(C2CC2)C3)c1 ; log10 of solubility observed: 1.91

Sample O=C(Nc1sc2c(c1C(=O)N/N=C/c1ccc(Cl)c(C(F)(F)F)c1)CCCC2)c1cccc(CN2CCC(O)CC2)c1 ; log10 of solubility observed: -1.00

Sample COCCN(CCOCCOCCOCCOCCOCCOCc1cccc(C(=O)Nc2sc3c(c2C(=O)N/N=C/c2ccc(Cl)c(C(F)(F)F)c2)CCC(C)(C)C3)c1)CC(=O)O ; log10 of solubility observed: 2.09

Sample CCN(CC)CCOCCOCCOc1cccc(C(=O)Nc2sc3c(c2C(=O)N/N=C/c2ccc(Cl)c(C(F)(F)F)c2)CCC(C)(C)C3)c1 ; log10 of solubility observed: 1.74
